Assay: Cytotoxicity against DENV serotype 2 strain New Guinea C infected african green monkey Vero B cells by CPE-reduction assay
Type: cell-based
Details: chlorocebus sabaeus
Please respond with reported CC50 for every item in the list.

Given the compound C(=N\Nc1nc(-c2ccc(-c3ccccc3)cc2)cs1)/c1ccccc1 , write its reported CC50. > 141 µM

Given the compound Oc1ccc(/C=N/Nc2nc(-c3ccc(-c4ccccc4)cc3)cs2)cc1 , write its reported CC50. > 135 µM

Given the compound COc1ccc(C2=NN(c3nc(-c4ccc(-c5ccccc5)cc4)cs3)C(c3ccc(O)cc3)C2)cc1 (stereo not drawn) , write its reported CC50. > 99 µM
